# ASSAY_METHOD_TEXT: Stability in aqueous media (FaSSIF, SGF, PBS)
# Format: physicochemical
# CONDITION_CONTEXT: FaSSIF pH 6.5, 37° C., 1 h
RECORDED_ENDPOINT: FaSSIF (pH 6.5) % remaining 1 h (%)
Kindly provide the numeric value in % only, without the unit symbol.

SMILES_CODE	FaSSIF (pH 6.5) % remaining 1 h / %
CCC(=O)OCOC(=O)c1ccc2c(c1)nc(OCCOCCCCNCc1cc(F)c(OC(F)(F)F)c(F)c1)c1ccncc12	94.9
CC(C)OC(=O)OCOC(=O)c1ccc2c(c1)nc(OCCOCCCCNCc1cc(F)c(OC(F)(F)F)c(F)c1)c1ccncc12	98.2
CCOC(=O)OCOC(=O)c1ccc2c(c1)nc(OCCOCCCCNCc1cc(F)c(OC(F)(F)F)c(F)c1)c1ccncc12	106.5
CC(C)C(=O)OCOC(=O)c1ccc2c(c1)nc(OCCOCCCCNCc1cc(F)c(OC(F)(F)F)c(F)c1)c1ccncc12	100.2

Challenge: Look up FaSSIF (pH 6.5) % remaining 1 h: `CCOC(=O)c1ccc2c(c1)nc(OCCOCCCCNCc1cc(F)c(OC(F)(F)F)c(F)c1)c1ccncc12`
Response given: 98.5

Challenge: Find the recorded FaSSIF (pH 6.5) % remaining 1 h belonging to `CC(C)(C)C(=O)OCOC(=O)c1ccc2c(c1)nc(OCCOCCCCNCc1cc(F)c(OC(F)(F)F)c(F)c1)c1ccncc12` and report it.
Response given: 112.8

Challenge: Reported FaSSIF (pH 6.5) % remaining 1 h, molecule `COC(=O)OCOC(=O)c1ccc2c(c1)nc(OCCOCCCCNCc1cc(F)c(OC(F)(F)F)c(F)c1)c1ccncc12` : ____
Response given: 96.4
